- TEST_SYSTEM: JNK3 (Homo sapiens)
- Construct: One such construct encodes amino acid residues Ser40-Glu402 of JNK3α1 and is preceded by Met and Gly residues; Met-Gly (initiation methionine plus glycine added for the NcoI site)
- ASSAY_NAME: JNK inhibition assay: spectrophotometric coupled-enzyme assay with activated JNK3
- APPLIED_CONDITIONS: activated JNK3 10 nM, 10 μM ATP, 200 μM EGF receptor peptide, 30° C., competitive inhibition model
pKi: −log10 of the molar value.
pKi reference

Below, 6 compounds whose answers are already recorded.
* COc1ccc(C(=O)Nc2ccc3c(c2)N(Cc2cc(F)cc4c2OCOC4)C(=O)/C3=N/O)cc1OCc1ccccc1 | > 6.00
* COCC(=O)Nc1ccc2c(c1)N(Cc1cc(F)cc3c1OCOC3)C(=O)/C2=N\O | > 6.00
* O=C(Nc1ccc2c(c1)N(Cc1cc(F)cc3c1OCOC3)C(=O)/C2=N\O)c1ccc([N+](=O)[O-])cc1 | > 6.00
* COc1cc(CNC(=O)c2ccc3c(c2)N(Cc2cc(F)cc4c2OCOC4)C(=O)/C3=N\O)cc(OC)c1 | ≤ 6.00
* COc1cc(CN2C(=O)/C(=N\O)c3ccc(C(F)(F)F)cc32)cc(OC)c1 | > 6.00
* Cc1cc(Cl)cc2c1N(Cc1ccccc1C#N)C(=O)/C2=N\O | ≤ 6.00

Could you now consider this next compound?
Request: Sample `COc1cc(CN2C(=O)/C(=N\O)c3ccccc32)cc(OC)c1` — what was its pKi?
Result: > 6.00

====

- TEST_SYSTEM: JNK3 (Homo sapiens, UniProt P53779)
- Construct: One such construct encodes amino acid residues Ser40-Glu402 of JNK3α1 and is preceded by Met and Gly residues; Met-Gly (initiation methionine plus glycine added for the NcoI site)
- Sequence (P53779 40-402): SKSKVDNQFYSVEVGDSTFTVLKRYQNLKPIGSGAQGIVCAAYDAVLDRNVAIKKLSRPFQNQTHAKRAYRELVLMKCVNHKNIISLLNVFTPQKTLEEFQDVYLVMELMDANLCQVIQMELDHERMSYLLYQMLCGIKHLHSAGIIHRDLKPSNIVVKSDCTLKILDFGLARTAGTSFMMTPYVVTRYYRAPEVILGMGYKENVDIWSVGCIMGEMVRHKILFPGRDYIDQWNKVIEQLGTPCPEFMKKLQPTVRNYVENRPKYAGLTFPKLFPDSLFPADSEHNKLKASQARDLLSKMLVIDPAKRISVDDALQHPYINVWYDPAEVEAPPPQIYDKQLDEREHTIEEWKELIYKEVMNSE
- ASSAY_NAME: JNK inhibition assay: spectrophotometric coupled-enzyme assay with activated JNK3
- APPLIED_CONDITIONS: activated JNK3 10 nM, 10 μM ATP, 200 μM EGF receptor peptide, 30° C., competitive inhibition model
pKi: −log10 of the molar value.
ASSAY_READOUT: pKi

- Cc1cc(F)ccc1C(=O)c1ccc2c(c1)/C(=N/O)C(=O)N2Cc1cc(F)cc2c1OCOC2: > 6.00
- COC(=O)CCCN1C(=O)/C(=N/O)c2ccc(CBr)cc21: ≤ 6.00
- O=C(Nc1ccc2c(c1)N(Cc1cc(F)cc3c1OCOC3)C(=O)/C2=N\O)c1ccc(Cl)cc1Cl: ≤ 6.00
- O=C1/C(=N\O)c2cc(F)ccc2N1Cc1ccc([N+](=O)[O-])cc1: ≤ 6.00
- O=C(O)CCCN(CCCC(=O)O)c1ccc2c(c1)/C(=N/O)C(=O)N2Cc1cc(F)cc2c1OCOC2: ≤ 6.00
- Cc1cc(Cl)cc2c1N(Cc1ccccn1)C(=O)/C2=N\O: ≤ 6.00

Request: Sample `Nc1cccc(-c2ccc3c(c2)N(Cc2cc(F)cc4c2OCOC4)C(=O)/C3=N\O)c1` — what was its pKi?
Result: > 6.00

Request: `O=C(NCCN1CCOCC1)c1ccc2c(c1)N(Cc1cc(F)cc3c1OCOC3)C(=O)/C2=N\O` ?
Result: ≤ 6.00

====

- TEST_SYSTEM: JNK3 (Homo sapiens)
- Construct: One such construct encodes amino acid residues Ser40-Glu402 of JNK3α1 and is preceded by Met and Gly residues; Met-Gly (initiation methionine plus glycine added for the NcoI site)
- ASSAY_NAME: JNK inhibition assay: spectrophotometric coupled-enzyme assay with activated JNK3
- APPLIED_CONDITIONS: activated JNK3 10 nM, 10 μM ATP, 200 μM EGF receptor peptide, 30° C., competitive inhibition model
ASSAY_READOUT: Ki

Below, 8 compounds whose answers are already recorded.
• O=C1/C(=N\O)c2cc(Cl)ccc2N1Cc1csc(-c2ccc(Cl)cc2)n1 = < 1000 nM
• O=C(Nc1ccc2c(c1)N(Cc1cc(F)cc3c1OCOC3)C(=O)/C2=N\O)c1cccnc1 = < 1000 nM
• COc1cc(CN2C(=O)/C(=N\O)c3c(C)cc(C)cc32)cc(OC)c1 = < 1000 nM
• COc1cc(CN2C(=O)/C(=N\O)c3cc(C)cc(C)c32)cc(OC)c1 = ≥ 1000 nM
• Cc1cc(Cl)cc2c1N(Cc1cccc([N+](=O)[O-])c1)C(=O)/C2=N\O = < 1000 nM
• C=Cc1cccc2c1/C(=N/O)C(=O)N2Cc1cc(F)cc2c1OCOC2 = < 1000 nM
• O=C1/C(=N\O)c2cc(Cl)ccc2N1Cc1ccccc1F = ≥ 1000 nM
• O=C1/C(=N\O)c2ccccc2N1Cc1ccc(F)cc1 = ≥ 1000 nM

Could you now consider this next compound?
Request: Sample `COc1ccccc1C(=O)Nc1ccc2c(c1)N(Cc1cc(F)cc3c1OCOC3)C(=O)/C2=N\O` — what was its Ki?
Result: < 1000 nM
